For each entry below, report its inhibition at 1 µM value.
Tested on: ROS
Assay: ROS labeling by cytometry after H2O2
Type: cell-based
Details: Homo sapiens, ARPE-19; 1 μM compound then 200 μM H2O2 for 2 h; read-out: C. ROS inhibition 1 μM - ARPE-19 cells

Example compounds with recorded inhibition at 1 µM:
Nc1nc(Nc2cccnc2)nn1Cc1ccccc1 : < 50%
Nc1nc(Nc2ccc(Br)cc2)nn1Cc1cccc(Br)c1 : ≥ 50%
Nc1nc(Nc2ccccn2)nn1CC(=O)c1cccc([N+](=O)[O-])c1 : < 50%
Nc1nc(Nc2ccc(Cl)cc2)n(Cc2cccc(Br)c2)n1 : < 50%

List inhibition at 1 µM for every entry below, keeping the order given.
1. CC(C)c1ccc(Cn2nc(Nc3ccc(Cl)c(Cl)c3)nc2N)cc1
2. Nc1nc(Nc2ccccc2)nn1Cc1cccc(Br)c1
3. COC(=O)c1ccc(Nc2nc(N)nn2Cc2cccc(Br)c2)cc1

["≥ 50%", "≥ 50%", "< 50%"]
